Experiment: Mouse Blood Levels
Assay type: in vivo
Conditions: im, 40 mg/kg, IM 40 mgm./kg., phosphate buffer, 0.25 hours after administration, first pair of lines (Example 1B susp.)
Listed here: items and their measured concentration at 0.25 h.
Write the value in ng/mL as a bare number.

| compound | readout | uom | readout-number |
| --- | --- | --- | --- |
| CO/N=C(\C(=O)N[C@@H]1C(=O)N2C(C(=O)O)=C(CSc3nnnn3CCN)CS[C@H]12)c1ccco1 | concentration at 0.25 h | ng/mL | 35000 |

Moving on to another compound below.
Tell me the measured concentration at 0.25 h of CO/N=C(\C(=O)N[C@@H]1C(=O)N2C(C(=O)O)=C(COC(N)=O)CS[C@H]12)c1ccco1 [Cefuroxime, reference compound] , please. 34500

====

Assay: Mouse Blood Levels
Format: in vivo
Conditions: im, 40 mg/kg, IM 40 mgm./kg., phosphate buffer, 0.5 hours after administration, second pair of lines (Example 1B sol.)
Reported concentration at 0.5 h values for the following compounds.
# output: number + unit

| compound | concentration at 0.5 h |
| --- | --- |
| CO/N=C(\C(=O)N[C@@H]1C(=O)N2C(C(=O)O)=C(COC(N)=O)CS[C@H]12)c1ccco1 [Cefuroxime, reference compound] | 20600 ng/mL |

From here, focus on the item given below.
May I ask what concentration at 0.5 h has been recorded for CO/N=C(\C(=O)N[C@@H]1C(=O)N2C(C(=O)O)=C(CSc3nnnn3CCN)CS[C@H]12)c1ccco1 ? 17400 ng/mL

====

Assay: Mouse Blood Levels
Assay type: in vivo
Conditions: im, 40 mg/kg, IM 40 mgm./kg., phosphate buffer, 1 hour after administration, first pair of lines (Example 1B susp.)
readout: concentration at 1 h (ng/mL)
Reply with just the number (in ng/mL).

| molecule | readout-number |
| --- | --- |
| CO/N=C(\C(=O)N[C@@H]1C(=O)N2C(C(=O)O)=C(CSc3nnnn3CCN)CS[C@H]12)c1ccco1 [Example 1B] | 5400 |

Report concentration at 1 h for CO/N=C(\C(=O)N[C@@H]1C(=O)N2C(C(=O)O)=C(COC(N)=O)CS[C@H]12)c1ccco1 [Cefuroxime, reference compound] please. 7600

====

Catalogue of concentration at 0.5 h values
Test: Mouse Blood Levels
Format: in vivo
Settings: im, 40 mg/kg, IM 40 mgm./kg., phosphate buffer, 0.5 hours after administration, first pair of lines (Example 1B susp.)
Kindly answer with a numeric value in ng/mL, unit omitted.

| compound | uom | concentration at 0.5 h |
| --- | --- | --- |
| CO/N=C(\C(=O)N[C@@H]1C(=O)N2C(C(=O)O)=C(COC(N)=O)CS[C@H]12)c1ccco1 [Cefuroxime, reference compound] | ng/mL | 26300 |

Next, consider the following compound.
What value of concentration at 0.5 h has been reported for the following compound? CO/N=C(\C(=O)N[C@@H]1C(=O)N2C(C(=O)O)=C(CSc3nnnn3CCN)CS[C@H]12)c1ccco1 [Example 1B] 17900

====

# maps each entry to its concentration at 1.5 h
Assay: Mouse Blood Levels
Assay type: in vivo
Settings: im, 40 mg/kg, IM 40 mgm./kg., phosphate buffer, 1.5 hours after administration, second pair of lines (Example 1B sol.)

| molecule | result |
| --- | --- |
| CO/N=C(\C(=O)N[C@@H]1C(=O)N2C(C(=O)O)=C(CSc3nnnn3CCN)CS[C@H]12)c1ccco1 [Example 1B] | < 2600 ng/mL |

Okay, next one:
GET /values?readout=concentration at 1.5 h&item= CO/N=C(\C(=O)N[C@@H]1C(=O)N2C(C(=O)O)=C(COC(N)=O)CS[C@H]12)c1ccco1 [Cefuroxime, reference compound] 2100 ng/mL

====

Assay: Mouse Blood Levels
Assay type: in vivo
Conditions: im, 40 mg/kg, IM 40 mgm./kg., phosphate buffer, 1 hour after administration, second pair of lines (Example 1B sol.)
readout: concentration at 1 h
Form entry: enter the amount, then its unit.

| molecule | concentration at 1 h |
| --- | --- |
| CO/N=C(\C(=O)N[C@@H]1C(=O)N2C(C(=O)O)=C(CSc3nnnn3CCN)CS[C@H]12)c1ccco1 [Example 1B] | 3900 ng/mL |

Given CO/N=C(\C(=O)N[C@@H]1C(=O)N2C(C(=O)O)=C(COC(N)=O)CS[C@H]12)c1ccco1 [Cefuroxime, reference compound] , state its recorded concentration at 1 h. 6000 ng/mL
